Data provenance: patent US20230295310A1

measurement-target: T1, human CD3e/d (human, UniProt P07766 23-126; P04234 22-105)
T1 construct: Bought soluble protein; also called hCD3e/d; human CD3/ed (Sino CT038-H2508H)
T1 sequence (P07766 23-126, chain 1 of 2): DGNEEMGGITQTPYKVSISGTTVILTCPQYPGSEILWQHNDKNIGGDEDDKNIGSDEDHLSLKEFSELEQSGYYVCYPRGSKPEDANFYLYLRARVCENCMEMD
T1 sequence (P04234 22-105, chain 2 of 2): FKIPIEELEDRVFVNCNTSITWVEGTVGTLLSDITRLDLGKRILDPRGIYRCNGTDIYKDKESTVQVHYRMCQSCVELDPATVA
test-summary: SPR (Carterra LSA), mAb on chip
parameter-measured: Kd (nM)

mAb 197 (antibody, V domains shown, VH and VL only) VH: QVQLVESGGGVVQPGGSLRLSCAASGFTFSGYGMHWVRQAPGKGLEWVAIIWYNGRKTYYAESVKGRFTISRDNSKNTLSLQMNSLRVEDTAVYYCTTGQGYNWFDPWGQGTLVTVSS VL: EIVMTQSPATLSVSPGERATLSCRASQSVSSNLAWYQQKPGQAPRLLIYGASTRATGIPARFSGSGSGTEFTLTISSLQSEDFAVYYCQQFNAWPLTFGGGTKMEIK: 49
mAb 260 (antibody, V domains shown, VH and VL only) VH: EVQLLESGGGLVQPGGSLRLSCVASGFTFRSSSMAWVRQAPGKGLEWVSGIRGSGGRTYDAESVKGRFIISRDTSKNTLYLQMNSLRGEDTAEYFCAKLYDYYNDYMDVWGKGTTVTVSS VL: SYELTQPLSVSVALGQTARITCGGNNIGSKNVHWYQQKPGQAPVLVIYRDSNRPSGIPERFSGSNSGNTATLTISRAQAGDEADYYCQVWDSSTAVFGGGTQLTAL: 28
